Values from ChEMBL document CHEMBL4130591

Biological target: Cystathionine gamma-lyase (Homo sapiens, UniProt P32929)
Sequence (P32929 whole entry): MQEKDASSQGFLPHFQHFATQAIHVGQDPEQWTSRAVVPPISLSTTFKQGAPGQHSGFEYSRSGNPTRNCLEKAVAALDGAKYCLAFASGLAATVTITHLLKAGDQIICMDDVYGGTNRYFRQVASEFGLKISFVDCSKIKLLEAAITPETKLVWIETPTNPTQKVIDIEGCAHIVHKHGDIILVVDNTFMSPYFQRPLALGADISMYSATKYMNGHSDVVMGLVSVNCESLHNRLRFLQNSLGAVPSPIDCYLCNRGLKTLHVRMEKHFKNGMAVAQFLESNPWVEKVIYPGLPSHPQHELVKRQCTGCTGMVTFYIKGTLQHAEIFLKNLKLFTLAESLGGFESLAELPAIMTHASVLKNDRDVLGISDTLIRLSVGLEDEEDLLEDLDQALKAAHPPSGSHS
Assay: Inhibition of cystathionine gamma-lyase (unknown origin)
pIC50: −log10 of the molar value.
MEASURED_ATTRIBUTE: pIC50

(I) NCCO/C=C/[C@H](N)C(=O)O
(II) C#CCNC(=O)[C@H]1CSC(=O)N1
(III) N=C1C=C(N)C(=O)c2[nH]c(=O)ccc21
(IV) CC(C)(S)[C@@H](N)C(=O)O
## Input From the items above, give an ordering by pIC50 that starts at the lowest reported number. A ranking is expressed here by listing the labels in the requested order.
## Output IV, II, III, I

---

Target: UniProt:P32929
Assay: Inhibition of cystathionine gamma-lyase (unknown origin) assessed as reduction in cysteine formation from CPM using L-cystathionine pre-incubated for 15 min followed by L-cystathionine and CPM addition and measured after 7 mins by fluorescence-based primary assay
MEASURED_ATTRIBUTE: IC50 (µM)

COc1ccc(NC(=O)CSC(=S)N/N=C/c2cscn2)cc1; 2.1

(a) CSC1=NNC(c2ccccn2)S1 (stereo not given)
(b) Cc1ccc(NC(=O)CSC(=S)N/N=C/c2ncccc2F)cc1
## Input Between a and b , which one shows the larger IC50 value? Returns: label corresponding to the selected item.
## Output a
(a: 6 µM, b: 2 µM)
